# Test system: human neuroblastoma cell line SH-SY5Y
# assay.protocol: Inhibition of BSO-induced non-apoptotic cell death (Example B.1)
# Format: cell-based
# experimental.conditions: SH-SY5Y cells, 50 μM BSO, 72 hours, read-out: SH-SY5Y/BSO IC50
measured.property: IC50

{"molecule": "Cc1ccc(CNC2=Nc3ccccc3NC23CCCCC3)cc1", "IC50": "< 500 nM"}
{"molecule": "CC(=O)N1CCC2(CC1)Nc1ccccc1N=C2NCc1cccc(Cl)c1", "IC50": "< 200 nM"}
{"molecule": "CN1CCC2(CC1)Nc1ccccc1N=C2NCc1ccccc1", "IC50": "< 50 nM"}
{"molecule": "Fc1cc(Cl)ccc1CNC1=Nc2ccccc2NC12CCNCC2", "IC50": "< 50 nM"}

Here are 4 molecules. What values of IC50 were reported for them?
1. Clc1cc2c(cc1Cl)NC1(CCCCC1)C(NCc1ccccc1)=N2
2. Cc1cc(C)cc(CNC2=Nc3cc(C)c(C)cc3NC23CCNCC3)c1
3. CC(=O)NC1CCC2(CC1)Nc1ccccc1N=C2NCc1cccc(Cl)c1 (stereo not shown)
4. FC(F)(F)c1cccc(CNC2=Nc3cc(Cl)c(Cl)cc3NC23CCCCC3)c1

< 50 nM
< 20 nM
< 500 nM
< 50 nM

For every item in the list below, what is its measured IC50?
1. CC1CCC2(CC1)Nc1ccccc1N=C2NCc1ccccc1 (stereo not shown)
2. NC1CCC2(CC1)Nc1ccccc1N=C2NCc1ccccc1 (stereo not shown)

1: < 200 nM; 2: < 100 nM
